- measuredOn: Prostaglandin E2 receptor EP3 subtype (Mus musculus, UniProt P30557)
- Sequence (P30557 whole entry): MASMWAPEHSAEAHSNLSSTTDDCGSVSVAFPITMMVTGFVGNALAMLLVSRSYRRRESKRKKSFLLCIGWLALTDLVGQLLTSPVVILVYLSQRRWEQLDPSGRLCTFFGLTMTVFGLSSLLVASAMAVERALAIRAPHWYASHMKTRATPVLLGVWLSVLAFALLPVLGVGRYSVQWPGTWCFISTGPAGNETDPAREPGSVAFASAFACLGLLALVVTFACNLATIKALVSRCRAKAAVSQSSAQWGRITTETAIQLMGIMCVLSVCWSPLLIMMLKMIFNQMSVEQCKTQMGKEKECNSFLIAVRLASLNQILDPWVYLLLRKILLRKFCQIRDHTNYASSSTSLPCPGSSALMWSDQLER
- experimentSummary: Antagonist activity at mouse EP3 receptor expressed in CHO cells assessed as inhibition of PGE2-induced increase intracellular calcium level in presence of 1% BSA by fluorimetry
readoutKind: log10 IC50 (log10 of the value in nM)

molecule="Cc1ccc(C(CC(C)C)NC(=O)c2cc(COc3ccccc3)ccc2CCC(=O)O)cc1F (stereo not drawn)" measuredon="Prostaglandin E2 receptor EP3 subtype (Mus musculus, UniProt P30557)" readoutkind="log10 IC50" measvalue=1.83
molecule="Cc1cccc(OCc2ccc(CCC(=O)O)c(C(=O)NC(CC(C)C)c3cc(C)cc(C)c3)c2)c1 (stereo not drawn)" measuredon="Prostaglandin E2 receptor EP3 subtype (Mus musculus, UniProt P30557)" readoutkind="log10 IC50" measvalue=0.62
molecule="Cc1cc(C)cc(C(CC(C)C)NC(=O)c2cc(COc3ccc(C#N)cc3)ccc2CCC(=O)O)c1 (stereo not drawn)" measuredon="Prostaglandin E2 receptor EP3 subtype (Mus musculus, UniProt P30557)" readoutkind="log10 IC50" measvalue=1.20
molecule="CC(C)CC(NC(=O)c1cc(COc2ccccc2)ccc1CCC(=O)O)c1ccc(C(F)(F)F)c(F)c1 (stereo not drawn)" measuredon="Prostaglandin E2 receptor EP3 subtype (Mus musculus, UniProt P30557)" readoutkind="log10 IC50" measvalue=1.72
molecule="Cc1ccc(C(CC(C)C)NC(=O)c2cc(COc3ccccc3)ccc2CCC(=O)O)cc1C (stereo not drawn)" measuredon="Prostaglandin E2 receptor EP3 subtype (Mus musculus, UniProt P30557)" readoutkind="log10 IC50" measvalue=1.20
molecule="Cc1cc(C)cc(C(CC(C)C)NC(=O)c2cc(COc3ccc(F)cc3)ccc2CCC(=O)O)c1 (stereo not drawn)" measuredon="Prostaglandin E2 receptor EP3 subtype (Mus musculus, UniProt P30557)" readoutkind="log10 IC50" measvalue=0.73
molecule="CC(C)CC(NC(=O)c1cc(COc2ccccc2)ccc1CCC(=O)O)c1ccc(F)c(F)c1 (stereo not drawn)" measuredon="Prostaglandin E2 receptor EP3 subtype (Mus musculus, UniProt P30557)" readoutkind="log10 IC50" measvalue=1.67
molecule="Cc1cc(C)cc(C(CC(C)C)NC(=O)c2cc(COc3ccccc3C#N)ccc2CCC(=O)O)c1 (stereo not drawn)" measuredon="Prostaglandin E2 receptor EP3 subtype (Mus musculus, UniProt P30557)" readoutkind="log10 IC50" measvalue=0.97
molecule="COc1cccc(C(CC(C)C)NC(=O)c2cc(COc3ccccc3)ccc2CCC(=O)O)c1 (stereo not drawn)" measuredon="Prostaglandin E2 receptor EP3 subtype (Mus musculus, UniProt P30557)" readoutkind="log10 IC50" measvalue=1.32
molecule="CC(C)CC(NC(=O)c1cc(COc2ccccc2)ccc1CCC(=O)O)c1cccc(F)c1 (stereo not drawn)" measuredon="Prostaglandin E2 receptor EP3 subtype (Mus musculus, UniProt P30557)" readoutkind="log10 IC50" measvalue=1.60
molecule="Cc1cc(C(CC(C)C)NC(=O)c2cc(COc3ccccc3)ccc2CCC(=O)O)ccc1F (stereo not drawn)" measuredon="Prostaglandin E2 receptor EP3 subtype (Mus musculus, UniProt P30557)" readoutkind="log10 IC50" measvalue=1.26
molecule="COc1cccc(OCc2ccc(CCC(=O)O)c(C(=O)NC(CC(C)C)c3cc(C)cc(C)c3)c2)c1 (stereo not drawn)" measuredon="Prostaglandin E2 receptor EP3 subtype (Mus musculus, UniProt P30557)" readoutkind="log10 IC50" measvalue=0.51
molecule="Cc1ccccc1C(CC(C)C)NC(=O)c1cc(COc2ccccc2)ccc1CCC(=O)O (stereo not drawn)" measuredon="Prostaglandin E2 receptor EP3 subtype (Mus musculus, UniProt P30557)" readoutkind="log10 IC50" measvalue=2.36
molecule="Cc1cc(C)cc(C(CC(C)C)NC(=O)c2cc(COc3ccc(Cl)cc3)ccc2CCC(=O)O)c1 (stereo not drawn)" measuredon="Prostaglandin E2 receptor EP3 subtype (Mus musculus, UniProt P30557)" readoutkind="log10 IC50" measvalue=1.48
molecule="Cc1cccc(C(CC(C)C)NC(=O)c2cc(COc3cccc(C#N)c3)ccc2CCC(=O)O)c1 (stereo not drawn)" measuredon="Prostaglandin E2 receptor EP3 subtype (Mus musculus, UniProt P30557)" readoutkind="log10 IC50" measvalue=0.82
molecule="Cc1ccc(OCc2ccc(CCC(=O)O)c(C(=O)NC(CC(C)C)c3cc(C)cc(C)c3)c2)cc1 (stereo not drawn)" measuredon="Prostaglandin E2 receptor EP3 subtype (Mus musculus, UniProt P30557)" readoutkind="log10 IC50" measvalue=1.20
molecule="CC(C)CC(NC(=O)c1cc(COc2cccc(C#N)c2)ccc1CCC(=O)O)c1ccc(F)cc1 (stereo not drawn)" measuredon="Prostaglandin E2 receptor EP3 subtype (Mus musculus, UniProt P30557)" readoutkind="log10 IC50" measvalue=0.85
molecule="CC(C)CC(NC(=O)c1cc(COc2ccccc2)ccc1CCC(=O)O)c1cccc(Cl)c1 (stereo not drawn)" measuredon="Prostaglandin E2 receptor EP3 subtype (Mus musculus, UniProt P30557)" readoutkind="log10 IC50" measvalue=1.54

* * *

- measuredOn: Prostaglandin E2 receptor EP3 subtype (Mus musculus)
- Sequence (P30557 whole entry): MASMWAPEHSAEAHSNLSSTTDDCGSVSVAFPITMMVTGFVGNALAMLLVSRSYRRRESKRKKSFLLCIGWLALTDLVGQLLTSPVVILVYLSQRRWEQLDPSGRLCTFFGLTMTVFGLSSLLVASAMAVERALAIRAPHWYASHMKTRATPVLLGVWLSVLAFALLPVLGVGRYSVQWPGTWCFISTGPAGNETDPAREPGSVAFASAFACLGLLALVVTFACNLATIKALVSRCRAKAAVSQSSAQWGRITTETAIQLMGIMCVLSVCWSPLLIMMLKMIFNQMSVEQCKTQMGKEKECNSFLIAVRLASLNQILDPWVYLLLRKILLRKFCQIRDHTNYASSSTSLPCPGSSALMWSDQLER
- experimentSummary: Antagonist activity at mouse EP3 receptor expressed in CHO cells assessed as inhibition of PGE2-induced increase intracellular calcium level in presence of 1% BSA by fluorimetry
- Format: functional, cell-based
pIC50: −log10 of the molar value.
Below is a list of entries, each paired with its recorded pIC50 value.
readoutKind: pIC50

compound="CC(C)CC(NC(=O)c1cc(COc2ccccc2)ccc1CCC(=O)O)c1ccc(F)c(Cl)c1 (stereo unspecified)" measuredon="Prostaglandin E2 receptor EP3 subtype (Mus musculus)" readoutkind=pIC50 measvalue=7.60
compound="COc1ccc(C(CC(C)C)NC(=O)c2cc(COc3ccccc3)ccc2CCC(=O)O)cc1C (stereo unspecified)" measuredon="Prostaglandin E2 receptor EP3 subtype (Mus musculus)" readoutkind=pIC50 measvalue=7.96
compound="Cc1cc(C)cc(C(CC(C)C)NC(=O)c2cc(COc3ccccc3F)ccc2CCC(=O)O)c1 (stereo unspecified)" measuredon="Prostaglandin E2 receptor EP3 subtype (Mus musculus)" readoutkind=pIC50 measvalue=7.89
compound="Cc1cccc(C(CC(C)C)NC(=O)c2cc(COc3ccccc3)ccc2CCC(=O)O)c1 (stereo unspecified)" measuredon="Prostaglandin E2 receptor EP3 subtype (Mus musculus)" readoutkind=pIC50 measvalue=7.43
compound="CC(C)CC(NC(=O)c1cc(COc2ccccc2)ccc1CCC(=O)O)c1ccc(C(F)(F)F)cc1 (stereo unspecified)" measuredon="Prostaglandin E2 receptor EP3 subtype (Mus musculus)" readoutkind=pIC50 measvalue=7.49
compound="CC(C)CC(NC(=O)c1cc(COc2ccccc2)ccc1CCC(=O)O)c1ccc(Cl)cc1 (stereo unspecified)" measuredon="Prostaglandin E2 receptor EP3 subtype (Mus musculus)" readoutkind=pIC50 measvalue=7.29
